Test: in vivo
Parameters: species or system C57BL/6 mice
Conditions: male, C57BL/6, mouse, iv, T1/2 (elimination half-life)
Where no end group is shown, it is not given here.
REPORTED_METRIC: half-life (h)
# number only, unit h dropped from output

Determine its reported half-life: SETRPVLNRLFDKIRQVRKEFGKIKEKSRKFM [SE-33] 4.8

====

Assay: in vivo
Parameters: species or system C57BL/6 mice
Conditions: male, C57BL/6, mouse, iv, MRT4–24
Where no end group is shown, it is not given here.
REPORTED_METRIC: MRT (h)
# number only, unit h dropped from output

Determine its reported MRT: SETRPVLNRLFDKIRQVRKEFGKIKEKSRKFM [SE-33] 34.2

====

Assay: in vivo
Parameters: species or system C57BL/6 mice
Settings: male, C57BL/6, mouse, iv
Where no end group is shown, it is not given here.
REPORTED_METRIC: AUC(0-t) (ng·h/mL)
# number only, unit ng·h/mL dropped from output

Determine its reported AUC(0-t): SETRPVLNRLFDKIRQVRKEFGKIKEKSRKFM [SE-33] 2010

====

Assay: in vivo
Parameters: species or system C57BL/6 mice
Details: male, C57BL/6, mouse, iv, MRT0–∞
Where no end group is shown, it is not given here.
REPORTED_METRIC: MRT (h)
# number only, unit h dropped from output

Determine its reported MRT: SETRPVLNRLFDKIRQVRKEFGKIKEKSRKFM [SE-33] 10.4

====

Test: in vivo
Design: species or system C57BL/6 mice
Settings: male, C57BL/6, mouse, iv
Procedure: The studies were conducted on sexually mature male C57BL/6 mice with an average body weight of 20 g and an age of 8 weeks. The animals were sourced from the “Andreevka”, branch of the Scientific Center of Biomedical Technologies of the Russian Federal Medical and Biological Agency (Russia). […] Immediately prior to administration, WJ-MSC-SE33 cells were resuspended in a saline solution (0.9% NaCl). […] The injection volume was calculated based on body weight. […]
Where no end group is shown, it is not given here.
REPORTED_METRIC: Tmax (h)
# number only, unit h dropped from output

Determine its reported Tmax: SETRPVLNRLFDKIRQVRKEFGKIKEKSRKFM [SE-33] 8

====

Assay: in vivo
Design: species or system C57BL/6 mice
Conditions: male, C57BL/6, mouse, iv, MRT4–∞
Where no end group is shown, it is not given here.
REPORTED_METRIC: MRT (h)
# number only, unit h dropped from output

Determine its reported MRT: SETRPVLNRLFDKIRQVRKEFGKIKEKSRKFM [SE-33] 31.4

====

Experiment: in vivo
Design: species or system C57BL/6 mice
Details: male, C57BL/6, mouse, iv, Cmax
Where no end group is shown, it is not given here.
REPORTED_METRIC: Cmax (µg/mL)
# number only, unit µg/mL dropped from output

Determine its reported Cmax: SETRPVLNRLFDKIRQVRKEFGKIKEKSRKFM [SE-33] 0.142

====

Test: in vivo
Design: species or system C57BL/6 mice
Conditions: male, C57BL/6, mouse, iv
Description: The studies were conducted on sexually mature male C57BL/6 mice with an average body weight of 20 g and an age of 8 weeks. The animals were sourced from the “Andreevka”, branch of the Scientific Center of Biomedical Technologies of the Russian Federal Medical and Biological Agency (Russia). […] Immediately prior to administration, WJ-MSC-SE33 cells were resuspended in a saline solution (0.9% NaCl). […] The injection volume was calculated based on body weight. […]
Where no end group is shown, it is not given here.
REPORTED_METRIC: AUC(0-inf) (ng·h/mL)
# number only, unit ng·h/mL dropped from output

Determine its reported AUC(0-inf): SETRPVLNRLFDKIRQVRKEFGKIKEKSRKFM [SE-33] 8050

====

Assay: in vivo
Design: species or system C57BL/6 mice
Details: male, C57BL/6, mouse, iv
Where no end group is shown, it is not given here.
REPORTED_METRIC: AUC (ng·h/mL)
# number only, unit ng·h/mL dropped from output

Determine its reported AUC: SETRPVLNRLFDKIRQVRKEFGKIKEKSRKFM [SE-33] 8210

====

Assay: in vivo
Design: species or system C57BL/6 mice
Settings: male, C57BL/6, mouse, iv
Where no end group is shown, it is not given here.
REPORTED_METRIC: half-life (h)
# number only, unit h dropped from output

Determine its reported half-life: SETRPVLNRLFDKIRQVRKEFGKIKEKSRKFM [SE-33] 23.1

====

Experiment: in vivo
Parameters: species or system C57BL/6 mice
Settings: male, C57BL/6, mouse, iv
Where no end group is shown, it is not given here.
REPORTED_METRIC: Tmax (h)
# number only, unit h dropped from output

Determine its reported Tmax: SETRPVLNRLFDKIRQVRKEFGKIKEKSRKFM [SE-33] 8
